biological target: T1, human full-length Notch1 with C-terminal FLAG tag, stably expressed on 293 FlpIn (TREx) cells (human, UniProt P46531 19-2555); experiment: FACS, phage scFv
T1 construct: tetracycline/doxycycline-induced expression from pcDNA5/FRT/TO-HN1+FLAG; also called hN1; 293_N1
ASSAY_READOUT: binding result

The examples below pair each entry with its known result.
*Q* Look at this binder and give its reported binding result. N1wc319 (scFv, V domains shown, phage scFv) VH: QVQLVQSGAEVEKPGASVKVSCKASGYNFTGYYMHWVRQAPGQGLEWMGWINPNSGGTNYAQKFQGRVTMTRDTSISTAYMELSRLRSDDTAVYYCATDSFDYWGRGTLVTVSS VL: QSVLTQPPSSSGTPGQRVTISCSGSSSNIGSNSVNWYQQLPGAAPKLLIYSDNQRPSGVPDRFSASKSYTSASLAISGLQSGDEADYFCATWDDSLTGLVFGGGTKLTVL
*A* binds

*Q* Look at this binder and give its reported binding result. N1wc540 (scFv, V domains shown, phage scFv) VH: EVQLVQSGAEVKKPGASVKVSCKASGYNFTGYYMHWVRQAPGQGLEWMGWINPNSGGTNYAQKFQGRVTMTRDTSISTAYMELSRLRSDDTAVYYCATDSFDYWGQGTMVTVSS VL: QAVLTQPSSASGTPGQRVTISCSGSSSNIGSYTVNWYQQVPGTAPKLLIYSNNQRPSGVPERFSGSKSGTSASLAISGLQSEDEADYYCAAWDDSLSDVLFGGGTKLTVL
*A* binds

*Q* Look at this binder and give its reported binding result. N1wc113 (scFv, V domains shown, phage scFv) VH: QMQLVQSGAEVKRPGASVNLSCKASGYSFSRYYIHWVRQAPGQGLELMGRINPGGGTTTYAQKFQGRVTLSRDTSTNTIFMELNGLTSEDTAMYYCARSNYDILAGYGPDAFDFWGQGTMVTVSS VL: QAVLTQPSSVSGAPGQRVTISCTGSSSNIGAGNDVHWYRQFPGTAPKLLIYGNNKRPSGVSDRFSGSKSGTSASLAITGLQVEDEADYYCQSYDSSLGGSDVFGGGTKLTVL
*A* binds

*Q* Look at this binder and give its reported binding result. N1wc112 (scFv, V domains shown, phage scFv) VH: EVQLVESGGGLAQPGKSLRISCAASGFTFGDYAMTWVRQAPGKGLEWVSSISGSGSGTYYTDSVKGRFAISRDNSKNTLYPQMNSLAAEDTAIYFCAKDQTDVTIRDFDYWGRGTLVTVSS VL: SYELTQPPSVSVAPGQTARISCGGDNLGRKSVHWYQQKPGQAPVLVIYEDSKRPSGIPERFSGSSSGTMATLTISGAQVEDEADYYCYSTDSSGNHRVFGGGTKVTVL
*A* binds

Next up:
*Q* Look at this binder and give its reported binding result. hN1S3-006 (scFv, V domains shown, phage scFv) VH: QVQLVQSGAEVKKPGASVKVSCKASGYNFTGYYIHWVRQAPGQGLEWMGWINPNSGGTNYAQKFQGRVIMTRDTSISTAYMELSRLRSDDTAVYYCATDSFDYWGRGTLVTVSS VL: QAVLTQPSSASGTAGQRVTISCSGSNSNIGSNTVNWYQQLPGTTPKLLIYSNNERPSGVPDRFSGSKSGTSASLAISGLQSDDEADYYCAAWDDSLNGYVFGTGTKVTVL
*A* binds
